Source listed as BindingDB's records for doi:10.1021/acs.jmedchem.0c00899.

# MEASUREMENT NOTES: Inhibition of SCD in human NCI-H2122 cells expressing CYP4F11 assessed as reduction in cell viability incubated for 96 hrs by cell titer Glo reagent based assay

ENTRY SMILES	IC50
COc1ccc2nc(NS(=O)(=O)c3ccccc3)sc2c1	> 50 µM
COc1ccc2nc(NC(=O)c3ccc(C(=O)N4CCN(C)CC4)cc3)sc2c1	> 50 µM
Cc1nnc(-c2ccc(N3CCC(Oc4cc(F)ccc4Cl)CC3)nn2)o1	< 0.01 µM
COc1ccc(C(=O)Nc2nc3cc(N)ccc3s2)cc1	> 50 µM
COc1ccc2nc(NC(=O)CCc3ccccc3)sc2c1	> 50 µM
